Just for reference, the supplement of paper PMC3545927 is where these values come from.

molecular target: furin, P09958; assay: furin cleavage Z-score vs untreated control; higher = more cleavage, active = 3.5 or more, inactive = 1 or less, 8 variable residues between constant flanks; details: 7.5 min;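 further: purified furin at 1:10 enzyme:substrate in 50 mM HEPES pH 7.5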
Sequence (P09958 whole entry): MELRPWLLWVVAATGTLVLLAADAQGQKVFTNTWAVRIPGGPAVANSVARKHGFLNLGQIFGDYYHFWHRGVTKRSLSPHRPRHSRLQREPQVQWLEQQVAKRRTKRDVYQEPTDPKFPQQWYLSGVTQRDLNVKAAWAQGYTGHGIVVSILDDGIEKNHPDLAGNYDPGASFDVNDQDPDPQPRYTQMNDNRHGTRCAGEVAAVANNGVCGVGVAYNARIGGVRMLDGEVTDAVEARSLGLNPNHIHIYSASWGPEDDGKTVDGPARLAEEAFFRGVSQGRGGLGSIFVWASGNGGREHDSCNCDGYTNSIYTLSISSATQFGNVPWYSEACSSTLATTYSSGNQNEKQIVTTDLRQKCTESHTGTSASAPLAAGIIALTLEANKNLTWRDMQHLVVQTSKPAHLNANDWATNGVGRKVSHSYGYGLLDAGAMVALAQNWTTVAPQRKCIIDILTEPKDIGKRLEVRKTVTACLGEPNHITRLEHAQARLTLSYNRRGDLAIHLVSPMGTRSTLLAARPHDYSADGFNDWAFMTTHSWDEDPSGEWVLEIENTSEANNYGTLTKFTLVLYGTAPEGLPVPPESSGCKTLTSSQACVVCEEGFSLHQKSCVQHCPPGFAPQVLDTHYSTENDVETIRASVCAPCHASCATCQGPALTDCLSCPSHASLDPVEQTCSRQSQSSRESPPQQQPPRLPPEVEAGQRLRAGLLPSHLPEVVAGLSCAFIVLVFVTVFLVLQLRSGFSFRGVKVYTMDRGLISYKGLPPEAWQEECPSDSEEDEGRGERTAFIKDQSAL
Some of the results follow. The hit rate among all sequences tested is not known here.
readout kind: furin cleavage Z-score
Hey, just send me the number, nothing else.

Examples with their reported furin cleavage Z-score follow.
{"residue codes": "CAMEECFQHLAGNASASA [HC26]", "furin cleavage Z-score": 0.765}
{"residue codes": "CAVVCWSMSYAGNASASA [HC87]", "furin cleavage Z-score": -0.794}
{"residue codes": "CARRRRFVPVAGNASASA [FS-2786]", "furin cleavage Z-score": 2.12}
{"residue codes": "CARFGRFWKKAGNASASA [FS-2921]", "furin cleavage Z-score": -0.769}
{"residue codes": "CARQKRLFCRAGNASASA [FS-2755]", "furin cleavage Z-score": -1.26}

Which value of furin cleavage Z-score has been reported for CAAETTVRLRAGNASASA [HC927] in the records?
0.749

Which value of furin cleavage Z-score has been reported for CAIITRWKRDAGNASASA [FS-1013] in the records?
11.5
